The measured values listed here are drawn from patent US20240182911A1.

# pKd annotations
# Tested target: receptor-binding domain (RBD) of the SARS-COV-2 spike (S) protein (SARS-COV-2, UniProt P0DTC2 319-541)
# Measurement description: SPR kinetic
// pKd here means minus log10 of the molar concentration (mol/L)

>  <Binder>
RBD1i1 (VHH) VHH: QVQLQESGGGLVQAGGSLRLSCAASGTISYENFMGWYRQAPGKERKLVAGINDGTNTYYADSVKGRFTISRDNAKNTVYLQMNSLKPEDTAVYYCAVIGASVLGHAYWGQGTQVTVSS

>  <pKd>
7.32

$$$$
>  <Binder>
RBD1 (VHH) VHH: QVQLQESGGGLVQAGGSLRLSCAASGTISYENFMGWYRQAPGKERELVAGINDGTNTYYADSVKGRFTISRDNAKNTVYLQMNSLKPEDTAVYYCAVIGTSVLGHAYWGQGTQVTVSS

>  <pKd>
5.85

$$$$
>  <Binder>
RBD1i13 (VHH) VHH: QVQLQESGGGLVQAGGSLRLSCAASGTISYENFMGWYRQAPGKGRKLVAGINDGTNTYYADSVKGRFTISRDNAKNTVYLQMNSLEPEDTAVYYCAVIGASVLGHAYWGQGTQVTVSS

>  <pKd>
7.49

$$$$

// switching to the query binder
Q: Give the measured pKd of RBD6 (VHH) VHH: QVQLQESGGGLVQAGGSLRLSCAASGSISTTYLMGWYRQAPGKEREFVATINRGGSTYYADSVKGRFTISRDNAKNTVYLQMNSLKPEDTAVYYCAVGWPDPDYGLAYHRYWGQGTQVTVSS .
Result: 6.00
